Parameter: Mean, FL2-H. Scope: all listed entries.
# ASSAYED SYSTEM: T1, GPC3 on the surface of hepatic cancer cell lines (SK-Hep1-GPC3 transfectant, HepG2, Huh7, Hep3B, SNU398) (human, UniProt P51654 25-554)
# T1 construct: Species is not restated for the cells (hepatic cancer cell lines, or SK-Hep1 transfected with pCMV/GPC3); also called glypican 3
# TEST METHOD NOTES: FACS, HepG2 cells, 1 ug antibody; upper right panel (Synthetic library)
EXPERIMENTAL READOUT: Mean, FL2-H

- clone GS017 (scFv, V domains shown, scFv library clone tested as culture supernatant) VH: EVQLLESGGGLVQPGGSLRLSCAASGFTFSGYAMSWVRQAPGKGLEWVSGISPGDGSTYYADSVKGRFTISRDNSKNTLYLQMNSLRAEDTAVYYCARVARMCQGWRCSYADGMDVWGQGTLVTVSS VL: QSVLTQPPSASGTPGQRVTISCTGSSSNIGNNSVYWYQQLPGTAPKLLIYSDSHRPSGVPDRFSGSKSGTSASLAISGLRSEDEADYYCGTWDSSLSGYVFGGGTKLTVLG: 12.2
- clone GS007 (scFv, V domains shown, scFv library clone tested as culture supernatant) VH: EVQLLESGGGLVQPGGSLRLSCAASGFTFSNYSMSWVRQAPGKGLEWVSVISHDGRSKYYADSVKGRFAISRDNSKNTLYLQMNSLRAEDTAVYYCAKFRVWKRTNAHSYANAMDVWGQGTLVTVSS VL: QSVLTQPPSASGTPGQRATISCTGSSSNIGSNSVSWYQQLPGTAPKLLIYANSNRPSGVPDRFSGSKSGTSASLAISGLRSEDEADYYCGTWDASLSAYVFGGGTKLTVLG: 11.3
